Where do these numbers come from? They come from patent US9267949B2.

# assayDetails: Spectroscopic properties of the BDM library (absorbance and emission maxima)
# Format: physicochemical
Exercise: state measured λmax (ABS) for each of the molecules provided.
Answers are plain numbers, in nm.

Record excerpt, results attached:
Cc1cc(/C=C/c2ccc(N(C)CCC#N)cc2)n2c1C(CCN)=C1C=CC=[N+]1[B-]2(F)F = 600
CC1=CC(/C=C/c2ccccc2)=[N+]2C1=C(CCN)c1cccn1[B-]2(F)F = 553
COc1ccc(F)c(/C=C/C2=[N+]3C(=C(CCN)c4cccn4[B-]3(F)F)C(C)=C2)c1 = 555

λmax (ABS) reading for COc1cc(/C=C/C2=[N+]3C(=C(CCN)c4cccn4[B-]3(F)F)C(C)=C2)cc(OC)c1 : 555

---

# assayDetails: Quantum yield measurements
# Format: physicochemical
# settings: referred to Rhodamine B in EtOH, excitation 510 nm, emission integrated 540-800 nm
Assign labels as follows, please: satisfied for φ (quantum yield) below 0.2; not satisfied for φ (quantum yield) equal to or exceeding 0.2.

Task item: API: query returns whether the compound falls strictly under 0.2 in φ (quantum yield). Query: CC1=CC(/C=C/c2ccc(N(C)C)cc2[N+](=O)[O-])=[N+]2C1=C(CCN)c1cccn1[B-]2(F)F
Reply: satisfied

Task item: Take the compound CCOc1ccccc1/C=C/C1=[N+]2C(=C(CCN)c3cccn3[B-]2(F)F)C(C)=C1 and say whether its φ (quantum yield) is less than 0.2.
Reply: not satisfied

Task item: Determine if Cc1cc(/C=C/c2ccc(C)c3ccccc23)n2c1C(CCN)=C1C=CC=[N+]1[B-]2(F)F shows φ (quantum yield) strictly lower than 0.2.
Reply: not satisfied

Task item: Strictly below 0.2 in φ (quantum yield)? CC1=CC(/C=C/c2ccc(C)o2)=[N+]2C1=C(CCN)c1cccn1[B-]2(F)F
Reply: satisfied

Task item: Quick check: φ (quantum yield) of CC1=CC(/C=C/c2ccc(/C=C/c3ccccc3)cc2)=[N+]2C1=C(CCN)c1cccn1[B-]2(F)F under 0.2?
Reply: not satisfied

Task item: A record lists COc1cc(OC)c(OC)cc1/C=C/C1=[N+]2C(=C(CCN)c3cccn3[B-]2(F)F)C(C)=C1 . Is its φ (quantum yield) below 0.2?
Reply: satisfied

Task item: Given the entry CC1=CC(/C=C/c2ccc(F)c(Oc3ccccc3)c2)=[N+]2C1=C(CCN)c1cccn1[B-]2(F)F , would its reported φ (quantum yield) be below 0.2?
Reply: not satisfied

---

# assayDetails: Spectroscopic properties of the BDM library (absorbance and emission maxima)
# Format: physicochemical
readoutKind: λmax (ABS) (nm)
Answers are plain numbers, in nm.

CC1=CC(/C=C/c2ccc(-c3ccc(Cl)cc3)o2)=[N+]2C1=C(CCN)c1cccn1[B-]2(F)F = 590
COc1ccc2c(OC)ccc(/C=C/C3=[N+]4C(=C(CCN)c5cccn5[B-]4(F)F)C(C)=C3)c2c1 = 582

# batch size: 6; output λmax (ABS) per entry
1. Cc1cc(/C=C/c2ccc(-c3cccs3)s2)n2c1C(CCN)=C1C=CC=[N+]1[B-]2(F)F
2. CC1=CC(/C=C/c2ccc(Oc3ccc(Cl)c(Cl)c3)cc2)=[N+]2C1=C(CCN)c1cccn1[B-]2(F)F
3. Cc1ccc2cccc(/C=C/c3cc(C)c4n3[B-](F)(F)[N+]3=CC=CC3=C4CCN)c2c1
4. CC1=CC(/C=C/c2cccc(C=O)c2)=[N+]2C1=C(CCN)c1cccn1[B-]2(F)F
5. CSc1ccccc1/C=C/C1=[N+]2C(=C(CCN)c3cccn3[B-]2(F)F)C(C)=C1
6. CC1=CC(/C=C/c2ccccc2I)=[N+]2C1=C(CCN)c1cccn1[B-]2(F)F

Reply:
1: 596; 2: 555; 3: 547; 4: 554; 5: 557; 6: 551

---

# assayDetails: Spectroscopic properties of the BDM library (absorbance and emission maxima)
# Type: physicochemical
Quick rule: λmax (EM) of at least 600 nm means Fulfilled, below that means Not fulfilled.

As a guide, the following entries are already answered.
COC(=O)c1ccc(-c2ccc(/C=C/C3=[N+]4C(=C(CCN)c5cccn5[B-]4(F)F)C(C)=C3)cc2)cc1 = Not fulfilled
COc1cccc(/C=C/C2=[N+]3C(=C(CCN)c4cccn4[B-]3(F)F)C(C)=C2)c1O = Not fulfilled
COc1ccc2[nH]cc(/C=C/C3=[N+]4C(=C(CCN)c5cccn5[B-]4(F)F)C(C)=C3)c2c1 = Fulfilled
Cc1cc(/C=C/c2ccc(-n3ccnc3)cc2)n2c1C(CCN)=C1C=CC=[N+]1[B-]2(F)F = Not fulfilled

Task item: λmax (EM) >= 600 nm for COc1ccc(/C=C/C2=[N+]3C(=C(CCN)c4cccn4[B-]3(F)F)C(C)=C2)cc1Cl ?
Reply: Not fulfilled

---

Please provide measured φ (quantum yield) for the entries that follow.
# assayDetails: Quantum yield measurements
# Format: physicochemical
# settings: referred to Rhodamine B in EtOH, excitation 510 nm, emission integrated 540-800 nm
One number for each entry.

C=CCOc1ccc(/C=C/c2cc(C)c3n2[B-](F)(F)[N+]2=CC=CC2=C3CCN)cc1 = 0.83
COc1cc2ccccc2c(/C=C/C2=[N+]3C(=C(CCN)c4cccn4[B-]3(F)F)C(C)=C2)c1OC = 0.41
CC1=CC(/C=C/c2cccc(N3CCCC3)c2[N+](=O)[O-])=[N+]2C1=C(CCN)c1cccn1[B-]2(F)F = 0.04
CCOc1ccc(/C=C/c2cc(C)c3n2[B-](F)(F)[N+]2=CC=CC2=C3CCN)cc1OCC = 0.46
COc1ccc(/C=C/C2=[N+]3C(=C(CCN)c4cccn4[B-]3(F)F)C(C)=C2)c(F)c1 = 0.83

I would be grateful if you could provide φ (quantum yield) for each of the following entries.
1. CCCCCCOc1ccc(/C=C/c2cc(C)c3n2[B-](F)(F)[N+]2=CC=CC2=C3CCN)cc1
2. CC1=CC(/C=C/c2ccc(-c3ccccc3)c(F)c2)=[N+]2C1=C(CCN)c1cccn1[B-]2(F)F

Reply:
1: 0.74; 2: 0.12

Dear reader, for each entry below, please note its φ (quantum yield).
1. CCc1ccc(/C=C/C2=[N+]3C(=C(CCN)c4cccn4[B-]3(F)F)C(C)=C2)cc1[N+](=O)[O-]
2. CC1=CC(/C=C/c2ccc(I)cc2)=[N+]2C1=C(CCN)c1cccn1[B-]2(F)F
3. CSc1ccccc1/C=C/C1=[N+]2C(=C(CCN)c3cccn3[B-]2(F)F)C(C)=C1
4. COc1ccc(F)cc1/C=C/C1=[N+]2C(=C(CCN)c3cccn3[B-]2(F)F)C(C)=C1
5. COc1ccc(Oc2ccc(/C=C/C3=[N+]4C(=C(CCN)c5cccn5[B-]4(F)F)C(C)=C3)cc2)cc1

Reply:
1: 0.08; 2: 0.35; 3: 0.30; 4: 0.28; 5: 0.37

---

Kindly state λmax (EM) for each of the entries shown.
# assayDetails: Spectroscopic properties of the BDM library (absorbance and emission maxima)
# Format: physicochemical
Answers are plain numbers, in nm.

COc1cc(OC)c(OC)cc1/C=C/C1=[N+]2C(=C(CCN)c3cccn3[B-]2(F)F)C(C)=C1 = 612
CC1=CC(/C=C/c2csc3ccccc23)=[N+]2C1=C(CCN)c1cccn1[B-]2(F)F = 588
COc1cc2ccccc2c(/C=C/C2=[N+]3C(=C(CCN)c4cccn4[B-]3(F)F)C(C)=C2)c1OC = 586
COc1cc(/C=C/C2=[N+]3C(=C(CCN)c4cccn4[B-]3(F)F)C(C)=C2)cc(O)c1OC = 580
COc1cc(OC)c(/C=C/C2=[N+]3C(=C(CCN)c4cccn4[B-]3(F)F)C(C)=C2)cc1Br = 599
CCOc1ccccc1/C=C/C1=[N+]2C(=C(CCN)c3cccn3[B-]2(F)F)C(C)=C1 = 577
CC1=CC(/C=C/c2ccc(-c3ccccc3)s2)=[N+]2C1=C(CCN)c1cccn1[B-]2(F)F = 615
COc1cccc(/C=C/C2=[N+]3C(=C(CCN)c4cccn4[B-]3(F)F)C(C)=C2)c1Cl = 567

Please look at the items below and tell me λmax (EM) for each one, in order.
1. CC(=O)Nc1ccc(/C=C/C2=[N+]3C(=C(CCN)c4cccn4[B-]3(F)F)C(C)=C2)cc1
2. Cc1cc(/C=C/c2ccc(N(C)C)cc2)n2c1C(CCN)=C1C=CC=[N+]1[B-]2(F)F
3. COc1ccc(/C=C/C2=[N+]3C(=C(CCN)c4cccn4[B-]3(F)F)C(C)=C2)cc1OC
4. CC1=CC(/C=C/c2ccc(OCCCN(C)C)cc2)=[N+]2C1=C(CCN)c1cccn1[B-]2(F)F
5. COc1cc(/C=C/C2=[N+]3C(=C(CCN)c4cccn4[B-]3(F)F)C(C)=C2)cc(Br)c1OC
6. CC1=CC(/C=C/c2ccccc2OC(F)F)=[N+]2C1=C(CCN)c1cccn1[B-]2(F)F
7. CC1=CC(/C=C/c2cc(Br)ccc2O)=[N+]2C1=C(CCN)c1cccn1[B-]2(F)F

Reply:
1: 589; 2: 685; 3: 594; 4: 586; 5: 573; 6: 565; 7: 575

For every item below, please supply its λmax (EM).
1. CC1=CC(/C=C/c2ccc(N(C)CCO)cc2)=[N+]2C1=C(CCN)c1cccn1[B-]2(F)F
2. CC1=CC(/C=C/c2ccccc2Cl)=[N+]2C1=C(CCN)c1cccn1[B-]2(F)F
3. COc1cccc(Oc2ccc(/C=C/C3=[N+]4C(=C(CCN)c5cccn5[B-]4(F)F)C(C)=C3)cc2)c1

Reply:
1: 699; 2: 566; 3: 568

Quick one: give me λmax (EM) for each item below, same order please.
1. CCCCOc1ccc(/C=C/c2cc(C)c3n2[B-](F)(F)[N+]2=CC=CC2=C3CCN)cc1
2. CC1=CC(/C=C/c2ccc3c(c2)OC(F)(F)O3)=[N+]2C1=C(CCN)c1cccn1[B-]2(F)F
3. CC1=CC(/C=C/c2ccc(Oc3cccc(Cl)c3)cc2)=[N+]2C1=C(CCN)c1cccn1[B-]2(F)F
4. CC1=CC(/C=C/c2cc(OCc3ccccc3)cc(OCc3ccccc3)c2)=[N+]2C1=C(CCN)c1cccn1[B-]2(F)F

Reply:
583
562
574
566
